- target: Polyunsaturated fatty acid 5-lipoxygenase (Rattus norvegicus) (UniProt P12527)
- Sequence (P12527 whole entry): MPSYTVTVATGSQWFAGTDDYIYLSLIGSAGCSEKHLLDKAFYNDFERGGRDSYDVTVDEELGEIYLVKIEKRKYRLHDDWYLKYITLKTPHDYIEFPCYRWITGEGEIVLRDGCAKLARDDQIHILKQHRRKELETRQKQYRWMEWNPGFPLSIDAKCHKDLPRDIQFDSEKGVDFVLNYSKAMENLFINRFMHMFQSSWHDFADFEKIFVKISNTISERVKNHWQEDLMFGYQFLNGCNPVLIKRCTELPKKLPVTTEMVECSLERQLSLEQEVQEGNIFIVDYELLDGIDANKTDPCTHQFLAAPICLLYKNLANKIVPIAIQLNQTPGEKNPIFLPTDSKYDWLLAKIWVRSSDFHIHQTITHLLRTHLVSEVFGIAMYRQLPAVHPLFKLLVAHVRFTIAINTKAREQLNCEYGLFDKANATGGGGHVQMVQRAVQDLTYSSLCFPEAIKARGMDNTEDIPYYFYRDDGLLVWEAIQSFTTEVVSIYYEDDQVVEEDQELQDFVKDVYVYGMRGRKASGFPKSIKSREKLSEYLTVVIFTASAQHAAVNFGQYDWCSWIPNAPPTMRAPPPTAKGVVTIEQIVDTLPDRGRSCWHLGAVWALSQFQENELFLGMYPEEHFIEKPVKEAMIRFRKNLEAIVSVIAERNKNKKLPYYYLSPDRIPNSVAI
- assay.notes: Inhibitory activity against 5-lipoxygenase (5-LO) using broken rat […] leukemia cells (RBL-1)at 10 uM
- Assay type: cell-based
reported.property: inhibition (%)

molecule	inhibition / %
CCc1ccc(-c2cc(C#CC(C)N(O)C(=O)CCl)nn2-c2ccc(OC)cc2)cc1 (centres undefined)	100
COC(=O)N(O)CC#Cc1cc(-c2ccc(C)cc2)n(-c2ccc(OC)cc2)n1	100
COc1ccc(-n2nc(C#CC(C)N(O)C(=O)N3CCCCC3)cc2-c2ccc(Cl)cc2)cc1 (centres undefined)	76
COc1ccc(-n2nc(C#CCN(O)C(C)=O)cc2-c2ccc(C)cc2)cc1	100
